Data provenance is PubChem BioAssay.

test: endothelial E-selectin expression blockers – imaging, HUVEC, immunofluorescence, MLSMR starter and 10KST1 sets, primary screen (AID 487); conditions: HUVEC TNFalpha-induced E-selectin immunofluorescence imaging, at 2 µM; measured here: cell number, toxicity;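 as to nuclei count: 100% = median nuclei count of all wells on the same plate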
Listed here are compounds together with their documented nuclei count.
Quick note: give the figure in %, leave out the unit.

Recorded result, CSc1ccc(-c2nc(CSCC(=O)N3CCOCC3)c(C)o2)cc1 , nuclei count: 101

Continuing:
Recorded result, COc1ccc(OC)c(NC(=O)c2nnn(Cc3ccc(Br)cc3F)c2N)c1 , nuclei count: 116

Recorded result, Nc1nc(SCc2nc3scc(-c4cccs4)c3c(=O)[nH]2)n[nH]1 , nuclei count: 116

Recorded result, N#Cc1cc2c(nc1SCC(=O)Nc1sc3c(c1C#N)CCC3)CCCCC2 , nuclei count: 104

Recorded result, COc1cc(OC)cc(OCC(O)Cn2cnc(-c3ccccc3)c2)c1 (stereo unspecified) , nuclei count: 94.7

Recorded result, COc1nc(NCCc2ccc(OC)c(OC)c2)nc(NC(C)(C)CO)n1 , nuclei count: 108

* * *

test: endothelial E-selectin expression blockers – imaging, HUVEC, immunofluorescence, MLSMR starter and 10KST1 sets, primary screen (AID 487); details: HUVEC TNFalpha-induced E-selectin immunofluorescence imaging, at 2 µM; stronger effect = higher value;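 as to inhibition: signal is fraction of cell area covered by stained E-selectin grains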
Active and inactive are the calls of the source.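 The calls were made as follows: active = visually confirmed hit in the image check and inhibition above 20%; inconclusive = visually confirmed hit but inhibition not above 20%; inactive = no visual hit in the image check.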
Listed here are compounds together with their documented inhibition.

Use the examples below as a reference point.
Recorded result, CCOc1cc(/C=N/n2cnnc2)cc(Br)c1O , inhibition: -30.9% (inactive)

Recorded result, CCC(=O)Nc1cc2nn(-c3ccccc3)nc2cc1Cl , inhibition: -94.2% (inactive)

Recorded result, CCN(CC)C(=O)c1ccc(CS(=O)(=O)c2ccc(OC)cc2)o1 , inhibition: -67.7% (inactive)

Continuing:
Recorded result, CCCn1cnc2c(cnn2-c2ccc(F)cc2)c1=O , inhibition: -41.5% (inactive)

Recorded result, O=C1CC(N2CCN(c3cccc(C(F)(F)F)c3)CC2)C(=O)N1c1ccccc1 (configuration not stated) , inhibition: 64.7% (active)

Recorded result, O=C(O)CC1=C(O)C(=O)N(c2ccccc2)C1c1ccccc1 (configuration not stated) , inhibition: -61.5% (inactive)

Recorded result, CCOc1ccc(-c2nnc(N)s2)cc1 , inhibition: -8.1% (inactive)

Recorded result, O=C1c2ccccc2C(=O)N1CCC(=O)N1CCc2ccccc21 , inhibition: -71.6% (inactive)

Recorded result, CCc1nnc2c3cnn(-c4ccccc4)c3ncn12 , inhibition: -25.5% (inactive)

Recorded result, O=C(CN1CCN(Cc2ccc(F)cc2Cl)C1=O)NCCCN1CCOCC1 , inhibition: -63.8% (inactive)

Recorded result, Cc1[nH]c2ccccc2c1Cc1nnc(SCC(=O)NCc2ccco2)o1 , inhibition: -24.9% (inactive)

Recorded result, CC(=O)OC1c2ccccc2C(=O)N1c1ccccc1C (configuration not stated) , inhibition: -51.8% (inactive)

* * *

test: endothelial E-selectin expression blockers – imaging, HUVEC, immunofluorescence, MLSMR starter and 10KST1 sets, primary screen (AID 487); details: HUVEC TNFalpha-induced E-selectin immunofluorescence imaging, at 2 µM; measured here: cell number, toxicity;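 as to nuclei count: 100% = median nuclei count of all wells on the same plate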
Metric: nuclei count (%)
Quick note: give the figure in %, leave out the unit.

Use the examples below as a reference point.
Recorded result, COc1cccc(-c2nnc(SCC(N)=O)n2-c2ccc(Cl)cc2)c1 , nuclei count: 94.5

Recorded result, COc1ccc(N(C)C(=O)CCS(=O)(=O)c2cccc3nonc23)c(OC)c1 , nuclei count: 125

Recorded result, CCOC(=O)N1CCN(c2c(NCCN(C)Cc3ccccc3)c(=O)c2=O)CC1 , nuclei count: 124

Continuing:
Recorded result, O=C(Nc1ccncc1)c1cccc(F)c1 , nuclei count: 68.8

Recorded result, CCn1c(Cc2ccccc2)nnc1SCC(=O)Nc1cc(C)on1 , nuclei count: 112

Recorded result, Cc1ccc(C2c3sc(=O)[nH]c3SC3C(=O)NC(=O)C32)cc1 (stereo not drawn) , nuclei count: 99.5

Recorded result, COc1cc(C(=O)NCCc2ccc3c(c2)OCCO3)ccc1OCC(=O)N1CCOCC1 , nuclei count: 96.6

Recorded result, CCOC(=O)c1cnc(SC2CC(=O)N(c3ccc(OC)c(OC)c3)C2=O)nc1N (stereo not drawn) , nuclei count: 135

Recorded result, CC1=C(C(=O)N2CCCCC2)C2(CCC(C)CC2)OC1=O (stereo not drawn) , nuclei count: 120

Recorded result, CSc1cccc(NS(=O)(=O)c2ccccc2)c1 , nuclei count: 106

* * *

assay: endothelial E-selectin expression blockers – imaging, HUVEC, immunofluorescence, MLSMR starter and 10KST1 sets, primary screen (AID 487); settings: HUVEC TNFalpha-induced E-selectin immunofluorescence imaging, at 2 µM; measured here: cell number, toxicity;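 as to nuclei count: 100% = median nuclei count of all wells on the same plate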
Listed here are compounds together with their documented nuclei count.
Quick note: give the figure in %, leave out the unit.

Recorded result, CCOC(=O)Cn1nnnc1C(C(C)C)N(Cc1cc2c(C)cc(C)cc2[nH]c1=O)C1CCCC1 (stereo not drawn) , nuclei count: 106

Recorded result, COCCNC(=O)CC(NS(=O)(=O)c1ccc(NC(C)=O)cc1)C(C)C (stereo not drawn) , nuclei count: 107

Recorded result, O=C(NCc1ccco1)c1ccc2c(=O)n(CC3CCCO3)c(=S)[nH]c2c1 (stereo not drawn) , nuclei count: 101

Recorded result, O=C(Nc1ccc(OC(=O)c2ccco2)cc1)c1ccco1 , nuclei count: 101

Recorded result, CC(=O)Nc1ccc(S(=O)(=O)N2CCC(c3nc4ccccc4[nH]3)CC2)cc1 , nuclei count: 84.3

Recorded result, CCCCOC(=O)Cn1c(=O)oc2ccc(C)cc21 , nuclei count: 109

Recorded result, COc1ccc(OCC(=O)N2CC3(C)CC2CC(C)(C)C3)cc1 (stereo not drawn) , nuclei count: 97.4

Recorded result, O=C(CCn1c(=O)oc2ccccc21)NCc1ccco1 , nuclei count: 127

Continuing:
Recorded result, N#CCCN1CCN(S(=O)(=O)c2ccc(S(=O)(=O)NC3CCCCC3)cc2)CC1 , nuclei count: 115

Recorded result, CCOC(=O)N1CCC(NC(=O)C2CCN(S(=O)(=O)c3cccc4cccnc34)CC2)CC1 , nuclei count: 107

Recorded result, CC1Cc2ccccc2N1C(=O)C12CCC(C)(C(=O)C1)C2(C)C (stereo not drawn) , nuclei count: 116

* * *

test: endothelial E-selectin expression blockers – imaging, HUVEC, immunofluorescence, MLSMR starter and 10KST1 sets, primary screen (AID 487); conditions: HUVEC TNFalpha-induced E-selectin immunofluorescence imaging, at 2 µM; stronger effect = higher value;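 as to inhibition: signal is fraction of cell area covered by stained E-selectin grains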
Quick rule: inhibition of at least -30% means true (1), below that means false (0).

For orientation, consider the following solved cases.
Is inhibition for Cn1c(CNc2nc(-c3ccccc3)cs2)nnc1SCC(=O)N1CCc2ccccc21 at or above -30%?
false (0)

Is inhibition for O=C(Nc1nonc1NC(=O)C1CCCCC1)C1CCCCC1 at or above -30%?
false (0)

Continuing:
Is inhibition for NC(=O)CSc1nnc(-c2cc3ccccc3o2)n1Cc1ccccc1 at or above -30%?
false (0)

Is inhibition for Cc1ccc(C)c(NC(=O)CSc2nnc(-c3ccccc3)o2)c1 at or above -30%?
false (0)

Is inhibition for Cc1ccc(S(=O)(=O)N2C(=O)CCC2C(=O)Nc2ccc3c(c2)OCCO3)cc1 (stereo unspecified) at or above -30%?
false (0)

Is inhibition for COc1ccc(CNc2oc(-c3ccccc3)nc2C#N)cc1 at or above -30%?
true (1)

Is inhibition for CC(=O)Nc1ccc(S(=O)(=O)Nc2nc3c(s2)CCCC3)cc1 at or above -30%?
false (0)

Is inhibition for O=C(Nc1ccc2c(c1)OCO2)c1cc2ncc(Br)cn2n1 at or above -30%?
false (0)

Is inhibition for O=C(CSc1nc2ncccc2[nH]1)Nc1ccc2c(c1)OCCO2 at or above -30%?
false (0)

Is inhibition for Cc1cc(C)n2nc[n+](C)c2n1 at or above -30%?
true (1)

Is inhibition for CCn1nc(C)c(NC(=O)c2cc(Br)ccc2Cl)c1C at or above -30%?
true (1)

* * *

assay: TLR3 IRF3 reporter activation blockers – cell-based, poly I:C stimulus, luciferase, 10K MLSCN set, primary screen (AID 602277); conditions: HEK293-TLR3 RL24 IRF3 luciferase reporter, at 10 µM, stronger effect = higher value
Metric: inhibition (%)
Quick note: give the figure in %, leave out the unit.

Use the examples below as a reference point.
Recorded result, CCN1CCN(Cc2nc3c(c(=O)[nH]c(=O)n3C)n2Cc2ccccc2Cl)CC1 , inhibition: 29

Recorded result, O=[n+]1c2c(n([O-])c3c1CCCC3)CCCC2 , inhibition: 24

Recorded result, Cc1cc(C)n(-c2cc(N3CCOCC3)nc(-c3ccccc3)n2)n1 , inhibition: 12.6

Recorded result, COc1ccccc1NC1=NC(c2ccc(Cl)cc2)N=C(N)N1 (stereo unspecified) , inhibition: 49.9

Recorded result, COc1ccc(C)cc1NCc1cccc(OC)c1OC , inhibition: 24.1

# input for lookup
Recorded result, O=S(=O)(NC1CCCCC1NS(=O)(=O)c1ccc(F)cc1)c1ccc(F)cc1 (stereo unspecified) , inhibition: 26.6
